Every entry's value here was drawn from patent US10206394B2.

# Test system: Lolium perenne (LOLPE)
# Assay Name: Glasshouse assay for herbicidal activity (pre- and post-emergence), percentage phytotoxicity
# Assay type: in vivo
# Recorded Conditions: Lolium perenne, post-emergence, 360 h, post-emergence, 250 g/ha, 15 DAA, visual score (100%=total damage; 0%=no damage); read-out: LOLPE POST herbicidal activity (percentage phytotoxicity)
Form field: pest or weed control at 250 g/ha (one value per entry).
Give your result in % as a bare value.

CCCN(CC)C(=O)CC1CC(=O)C(c2c(C)cc(C)cc2C)C1=O (stereo not shown) | 80
Cc1cc(C)c(C2C(=O)CC(CC(=O)NCC3(F)COC3)C2=O)c(C)c1 (stereo not shown) | 30
CCSC(=O)OC1=C(c2c(C)cc(-c3ncc(Cl)cn3)cc2C)C(=O)C(CC(=O)NC(C)(C)C)C1 (stereo not shown) | 100

Alright, here's another compound for you.
Can you share its pest or weed control at 250 g/ha? I mean this compound: Cc1cc(-c2nccs2)cc(C)c1C1C(=O)CC(CC(=O)NC(C)(C)C)C1=O (stereo not shown)
60
